# target: PBP3 from Pseudomonas aeruginosa (PAO1) (Pseudomonas aeruginosa, UniProt G3XD46)
# Construct: made in house
# Sequence (G3XD46 whole entry): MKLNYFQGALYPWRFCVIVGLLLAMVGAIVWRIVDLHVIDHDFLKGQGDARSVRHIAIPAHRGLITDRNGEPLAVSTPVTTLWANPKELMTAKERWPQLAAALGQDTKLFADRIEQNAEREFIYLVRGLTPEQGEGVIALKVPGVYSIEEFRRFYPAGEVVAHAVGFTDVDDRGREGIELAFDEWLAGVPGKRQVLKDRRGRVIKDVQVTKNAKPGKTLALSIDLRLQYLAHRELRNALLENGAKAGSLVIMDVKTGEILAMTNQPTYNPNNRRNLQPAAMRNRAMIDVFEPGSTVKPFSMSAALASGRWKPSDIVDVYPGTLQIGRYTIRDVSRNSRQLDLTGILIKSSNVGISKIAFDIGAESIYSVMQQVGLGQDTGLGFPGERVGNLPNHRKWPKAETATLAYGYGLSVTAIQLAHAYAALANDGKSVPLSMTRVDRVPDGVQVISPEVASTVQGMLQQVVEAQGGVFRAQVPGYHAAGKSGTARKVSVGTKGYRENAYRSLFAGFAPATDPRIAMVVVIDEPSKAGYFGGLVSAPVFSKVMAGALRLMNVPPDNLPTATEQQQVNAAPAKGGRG
# assay_overview: Bocillin-FL fluorescence polarization competition binding, P. aeruginosa PBP3
# condition_set: Binding affinity to P. aeruginosa PBP3; fluorescence polarization competition binding assay using Bocillin-FL; read-out: P. aeruginosa PBP3 Potency
pIC50: −log10 of the molar value.
Measured pIC50 accompanies every entry in the list below.

Reference set (4 entries):
O=C(NCCCN1CCN(C(=O)NC(C(=O)N[C@H]2Cc3ccc(F)c(C(=O)O)c3OB2O)c2cc(F)c(O)c(O)c2Cl)C(=O)C1=O)c1c(F)ccc(O)c1Cl (stereo partly drawn) [Example 414] ... > 5.00
O=C(NCCCS(=O)(=O)N1CCN(C(=O)NC(C(=O)N[C@H]2Cc3ccc(F)c(C(=O)O)c3OB2O)c2cc(F)c(O)c(O)c2Cl)C1=O)c1ccc(O)cc1 (stereo partly drawn) [Example 269] ... > 5.00
O=C(O)c1cccc2c1OB(O)[C@@H](NC(=O)[C@H](NC(=O)[C@@H]1CCCN1)c1ccc(P(=O)(O)O)cc1)C2 [Example 173] ... 4.30 to 5.00
O=C(O)c1cccc2c1OB(O)[C@@H](NC(=O)[C@H](NC(=O)c1c[nH]ccc1=O)c1ccc(P(=O)(O)O)cc1)C2 [Example 175] ... > 5.00

-- ask Find pIC50 for O=C(O)c1c(F)ccc2c1OB(O)[C@@H](NC(=O)C(NC(=O)N1CCN(CC3CCN(C(=O)c4cccc(O)c4)CC3)C(=O)C1=O)c1cc(F)c(O)c(O)c1Cl)C2 (stereo partly drawn) [Example 475] on PBP3 from Pseudomonas aeruginosa (PAO1) (Pseudomonas aeruginosa, UniProt G3XD46) and write it down.
-- reply > 5.00

-- ask Find pIC50 for O=C(NCCCN1CCN(C(=O)NC(C(=O)N[C@H]2Cc3ccc(F)c(C(=O)O)c3OB2O)c2cc(F)c(O)c(O)c2Cl)C1=O)c1nccs1 (stereo partly drawn) [Example 257] on PBP3 from Pseudomonas aeruginosa (PAO1) (Pseudomonas aeruginosa, UniProt G3XD46) and write it down.
-- reply > 5.00

---

Measured MIC accompanies every entry in the list below.
# System: N. gonorrhoeae WHO M
# assay_overview: Liquid broth MIC in Fastidious broth
# condition_set: Neisseria gonorrhoeae, read-out: Minimum Inhibitory Concentration, WHO M

-- ask Answer with reported MIC of O=C(NCCN1CCN(C(=O)NC(C(=O)N[C@H]2Cc3ccc(F)c(C(=O)O)c3OB2O)c2cc(F)c(O)c(O)c2Cl)C1=O)c1cccnc1 (stereo partly drawn) [Example 246]
-- reply 16 to 32 µg/mL

-- ask Answer with reported MIC of O=C(NCCCN1CCN(C(=O)NC(C(=O)N[C@H]2Cc3ccc(F)c(C(=O)O)c3OB2O)c2cc(F)c(O)c(O)c2Cl)C(=O)C1=O)c1ccc(O)c(F)c1 (stereo partly drawn) [Example 304]
-- reply 16 to 32 µg/mL

---

# Tested on: P. aeruginosa ATCC 27853
# assay_overview: microbe, parasite or virus in culture
# Type: cell-based
# condition_set: Pseudomonas aeruginosa, ATCC27853, read-out: Minimum inhibitory concentration, P. aeruginosa ATCC 27853
quantity: MIC

O=C(NCCCN1CCN(C(=O)NC(C(=O)N[C@H]2Cc3ccc(F)c(C(=O)O)c3OB2O)c2cc(F)c(O)c(O)c2Cl)C(=O)C1=O)c1ccc(F)c(O)c1F (some centres unmarked) [Example 411] ... < 1 µg/mL

-- ask Answer with reported MIC of O=C(NCCCN1CCN(C(=O)N[C@H](C(=O)N[C@H]2Cc3ccc(F)c(C(=O)O)c3OB2O)c2cc(F)c(O)c(O)c2Cl)C(=O)C1=O)c1ccc(O)cc1Cl (single isomer, unassigned) [Example 470]
-- reply 2 to 4 µg/mL

-- ask Answer with reported MIC of O=C(O)c1c(F)ccc2c1OB(O)[C@@H](NC(=O)[C@H](NC(=O)N1CCN(C3CCN(C(=O)c4cc(O)cc(F)c4)CC3)C1=O)c1cc(F)c(O)c(O)c1Cl)C2 (single isomer, unassigned) [Example 436]
-- reply < 1 µg/mL

-- ask Answer with reported MIC of O=C(NCCCN1CCN(C(=O)NC(C(=O)N[C@H]2Cc3ccc(F)c(C(=O)O)c3OB2O)c2cc(F)c(O)c(O)c2Cl)C1=O)c1ccncc1 (some centres unmarked) [Example 256]
-- reply 2 to 4 µg/mL

-- ask Answer with reported MIC of O=C(O)c1c(F)ccc2c1OB(O)[C@@H](NC(=O)C(NC(=O)N1CCN(C3CCN(S(=O)(=O)Cc4cccc(O)c4)CC3)C(=O)C1=O)c1cc(F)c(O)c(O)c1Cl)C2 (some centres unmarked) [Example 485]
-- reply 2 to 4 µg/mL
